Target: human Nav1.7 (Homo sapiens, UniProt Q15858)
Construct: expressed in transfected cells; host or cells: HEK293
Sequence (Q15858 whole entry): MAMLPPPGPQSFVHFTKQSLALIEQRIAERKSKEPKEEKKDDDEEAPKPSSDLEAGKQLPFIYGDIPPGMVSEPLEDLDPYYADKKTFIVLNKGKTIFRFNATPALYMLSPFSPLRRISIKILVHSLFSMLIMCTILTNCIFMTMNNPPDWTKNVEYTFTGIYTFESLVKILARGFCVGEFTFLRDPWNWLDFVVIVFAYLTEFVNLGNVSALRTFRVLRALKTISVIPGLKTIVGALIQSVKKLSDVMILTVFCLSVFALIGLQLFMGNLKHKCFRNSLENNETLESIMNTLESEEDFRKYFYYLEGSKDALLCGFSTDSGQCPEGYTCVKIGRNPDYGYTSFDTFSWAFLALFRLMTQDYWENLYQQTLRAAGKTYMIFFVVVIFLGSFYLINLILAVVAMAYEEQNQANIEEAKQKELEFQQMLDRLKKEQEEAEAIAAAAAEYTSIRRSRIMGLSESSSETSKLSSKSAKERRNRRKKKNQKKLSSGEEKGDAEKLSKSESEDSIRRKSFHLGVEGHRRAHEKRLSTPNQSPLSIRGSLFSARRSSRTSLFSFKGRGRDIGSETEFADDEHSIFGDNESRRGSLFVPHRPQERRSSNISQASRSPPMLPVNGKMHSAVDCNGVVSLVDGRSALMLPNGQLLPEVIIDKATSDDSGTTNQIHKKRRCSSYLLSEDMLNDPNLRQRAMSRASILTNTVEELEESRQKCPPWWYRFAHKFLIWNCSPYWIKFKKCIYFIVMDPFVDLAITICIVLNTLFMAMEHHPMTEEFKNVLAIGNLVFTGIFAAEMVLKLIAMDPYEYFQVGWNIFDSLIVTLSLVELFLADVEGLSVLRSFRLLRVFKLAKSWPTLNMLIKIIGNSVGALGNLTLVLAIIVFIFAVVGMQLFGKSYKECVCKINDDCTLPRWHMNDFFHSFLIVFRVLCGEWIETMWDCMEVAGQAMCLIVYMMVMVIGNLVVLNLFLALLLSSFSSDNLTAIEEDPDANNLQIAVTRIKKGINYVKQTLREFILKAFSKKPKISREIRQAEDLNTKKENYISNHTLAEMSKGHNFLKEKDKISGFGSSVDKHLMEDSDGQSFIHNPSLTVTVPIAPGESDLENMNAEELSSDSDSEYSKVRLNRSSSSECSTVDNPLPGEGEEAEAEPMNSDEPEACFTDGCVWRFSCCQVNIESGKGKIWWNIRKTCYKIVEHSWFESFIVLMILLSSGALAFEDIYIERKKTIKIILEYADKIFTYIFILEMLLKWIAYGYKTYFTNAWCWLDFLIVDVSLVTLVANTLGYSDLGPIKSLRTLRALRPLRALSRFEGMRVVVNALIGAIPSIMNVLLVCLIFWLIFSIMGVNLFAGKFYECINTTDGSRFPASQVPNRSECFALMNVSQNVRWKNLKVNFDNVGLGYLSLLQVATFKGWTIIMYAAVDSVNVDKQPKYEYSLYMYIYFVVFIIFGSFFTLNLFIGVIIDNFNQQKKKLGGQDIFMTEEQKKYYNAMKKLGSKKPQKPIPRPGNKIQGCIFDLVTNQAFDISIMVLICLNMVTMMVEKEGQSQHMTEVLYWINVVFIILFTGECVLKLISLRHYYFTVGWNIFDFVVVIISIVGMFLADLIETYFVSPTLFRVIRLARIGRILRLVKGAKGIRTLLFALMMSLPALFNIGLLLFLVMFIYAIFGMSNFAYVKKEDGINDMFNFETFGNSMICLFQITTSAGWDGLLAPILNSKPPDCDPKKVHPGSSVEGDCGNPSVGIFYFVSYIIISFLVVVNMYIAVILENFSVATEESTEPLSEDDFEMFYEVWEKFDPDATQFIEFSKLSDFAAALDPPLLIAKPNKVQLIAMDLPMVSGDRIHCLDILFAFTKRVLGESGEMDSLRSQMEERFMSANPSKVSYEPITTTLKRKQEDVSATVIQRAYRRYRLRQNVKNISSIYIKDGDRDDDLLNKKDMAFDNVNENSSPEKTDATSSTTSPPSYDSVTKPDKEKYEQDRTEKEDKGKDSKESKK
Assay: Nav 1.7 IWB In Vitro Assay (IonWorks Barracuda)
Assay type: cell-based
Details: HEK293 cells stably transfected with human Nav 1.7; IonWorks Barracuda population patch-clamp; cells clamped to −20 mV for 4 minutes with compound; 26th pulse; read-out: hNav1.7 IWB IC50
pIC50: −log10 of the molar value.
Is pIC50 at least 8? Then Satisfied. If not, Not satisfied.

Study these solved cases before continuing.
compound: COc1cc(-c2cc(F)cc(F)c2)c(F)cc1-n1c2c(ccc1=O)[C@H](C)N(S(=O)(=O)Nc1ccon1)CC2 [Example 3-B-M]
class-label: Not satisfied
--
compound: COc1cc(-c2ccc(Cl)c(C)c2)c(F)cc1-n1c2c(ccc1=O)CN(S(=O)(=O)Nc1ccon1)CC2 (single isomer, unassigned) [Example 24-M]
class-label: Not satisfied
--
compound: COc1cc(-c2cc(F)cc(Cl)c2)c(F)cc1-n1c2c(ccc1=O)CN(S(=O)(=O)Nc1ccccn1)CC2 (racemic) [Example 11-(Rac)]
class-label: Not satisfied
--
compound: COc1cc(-c2cc(F)cc(F)c2)c(F)cc1-n1c2c(ccc1=O)[C@@H](C)N(S(=O)(=O)Nc1ccon1)CC2 (single isomer, unassigned) [Example 3-A-M]
class-label: Not satisfied
--
compound: COc1cc(-c2cc(Cl)cc(OC(F)(F)F)c2)c(F)cc1-n1c2c(ccc1=O)CN(S(=O)(=O)Nc1cccnn1)CC2
class-label: Satisfied

Now turn to the next compound.
Determine whether this compound has pIC50 no lower than 8: COc1cc(-c2cc(F)cc(Cl)c2)ccc1-n1c2c(ccc1=O)CN(S(=O)(=O)Nc1cccnn1)CC2 (racemic) [8-(Rac)]
Not satisfied
